molecular target: CB1 (Homo sapiens); construct: gene CNR1; co-expressed with beta-arrestin 2 fused to the complementary fragment; assay: NanoLuc complementation beta-arrestin […] recruitment, live cells; type: cell-based; conditions: read-out: CB1 / EC50 (nM) (± 95% CI)
Sequence (P21554 whole entry, the tested form may be a part): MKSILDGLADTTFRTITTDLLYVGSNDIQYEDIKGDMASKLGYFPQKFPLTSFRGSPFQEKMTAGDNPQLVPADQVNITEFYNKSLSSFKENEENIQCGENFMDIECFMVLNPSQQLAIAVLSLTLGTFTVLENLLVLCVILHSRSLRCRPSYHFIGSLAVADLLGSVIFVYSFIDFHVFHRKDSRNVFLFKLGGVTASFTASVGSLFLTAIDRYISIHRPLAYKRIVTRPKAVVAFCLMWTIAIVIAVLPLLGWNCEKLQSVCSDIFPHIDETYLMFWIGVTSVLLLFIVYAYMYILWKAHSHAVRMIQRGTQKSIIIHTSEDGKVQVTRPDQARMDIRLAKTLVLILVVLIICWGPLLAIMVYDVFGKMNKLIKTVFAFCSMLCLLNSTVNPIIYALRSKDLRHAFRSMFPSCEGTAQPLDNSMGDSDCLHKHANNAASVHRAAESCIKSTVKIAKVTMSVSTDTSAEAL
Field: EC50. Provide a value for each of the compounds that follow.
Give bare numbers, in nM.

Consider the following illustrative entries.
Compound	Target	Measure unit	Meas value
COC(=O)[C@H](NC(=O)c1nn(CCCCCF)c2ccccc12)C(C)(C)C [compound 3, (R)-5F-MDMB-PINACA]	CB1 (Homo sapiens)	nM	131
CC(C)[C@H](NC(=O)c1nn(Cc2ccc(F)cc2)c2ccccc12)C(N)=O	CB1 (Homo sapiens)	nM	12.9
CC(C)[C@@H](NC(=O)c1nn(CC2CCCCC2)c2ccccc12)C(N)=O [compound 4, (R)-AB-CHMINACA]	CB1 (Homo sapiens)	nM	319
COC(=O)[C@H](NC(=O)c1nn(Cc2ccc(F)cc2)c2ccccc12)C(C)C [compound 2, (R)-AMB-FUBINACA]	CB1 (Homo sapiens)	nM	55.8

Next compound, EC50 to be filled in.
Retrieve EC50 measured for COC(=O)[C@@H](NC(=O)c1nn(CCCCCF)c2ccccc12)C(C)(C)C [compound 3, (S)-5F-MDMB-PINACA] and print it.
1.78
